meta.source: ChEMBL document CHEMBL3433997

Reported inhibition values are given for each entry in this list.
target: Glucose transporter (Leishmania mexicana) (UniProt O61059); test: ST_JUDE_LEISH: Cytotoxicity at 2uM final concentration against transgenic Leishmania Mexicana promastigotes LmGT2 that are glucose transport deficient and complemented with the L. Mexicana glucose transporter 2. Activity is measured by DNA content using SYBR green in vitro; assay type: functional
Field format: number, assumed %, no unit text.

Solved cases (4 shown):
O=C(Nc1ccc(OC2CCN(Cc3ccc(F)cc3)C2)c(Cl)c1)c1ccsc1 (stereo not given)	1.2
CN(C)CCCOc1ccc(-c2csc(NC(=N)NCc3ccccc3)n2)cc1	3.86
CCOc1ccc(C=CC(=O)Nc2ccc3nc(N4CCN(C)CC4)cc(C)c3c2)cc1OC	1.18
Cc1cc(Nc2cccc(C(F)(F)F)c2)nc(Nc2cccc(C(F)(F)F)c2)n1	-0.49

Lab book: inhibition of CC(C)COc1ccc2ccccc2c1CNCCCCCCNCc1c(OCC(C)C)ccc2ccccc12 noted as 27.7

====

Listed compounds paired with reported inhibition
target: Glucose transporter (Leishmania mexicana) (UniProt O61059); assay: ST_JUDE_LEISH: Cytotoxicity at 2uM final concentration against transgenic Leishmania Mexicana promastigotes LmGT2 that are glucose transport deficient and complemented with the L. Mexicana glucose transporter 2. Activity is measured by DNA content using SYBR green in vitro; type: functional
Report the value in % with no unit label.

COc1ccc2[nH]ccc(=NN=CC=Cc3ccccc3)c2c1	-3.26
CN(C)CC(=O)Nc1ccc(Nc2nccc(NCC(O)c3ccccc3)n2)cc1 (stereo not given)	0.21
CC1(C)NC(N)=NC(=N)N1OCCc1ccccc1	0.66
O=C(Nc1cccc(CN2CCCN(CC3CCCCC3)CC2)c1)c1cc2ccccc2s1	-8.67
COc1ccc(-c2cnc(N)c(-c3ccc(O)c(OC)c3)c2)cn1	1.13
C=C(C)CSc1nc2c(c(=O)n1Cc1ccco1)C1(CCCCC1)Cc1ccccc1-2	4.72
Cc1cccc2nc(-c3cccc(-c4cccc(CNCc5ccc(S(C)(=O)=O)cc5)c4)c3)[nH]c12	-0.24
CCCCc1ccc(-c2ccc(-c3c(C)[nH]c(C)c(Br)c3=O)cn2)cc1	1.52
Cc1cccc2nc(-c3ccc(-c4ccc(CN5CC(C)OC(C)C5)cc4)cc3)[nH]c12 (stereo not given)	0.01
NCCNc1ccc([N+](=O)[O-])cc1C(=O)Nc1cccc(Cl)c1	2.22

Memo: COc1cccc(C2CCN(CCN3CCC(NC(=O)c4ccc(-c5ccc(C(F)(F)F)cc5)cc4)CC3)CC2)c1 , reported inhibition: 6.6

O=C(Nc1ccc(Cl)cc1)NC1CCN(CCCCCNC(=O)C2CC2c2ccc(Cl)c(Cl)c2)CC1 (stereo not given) yielded inhibition of 7.34

Summary for this compound, FC(F)(F)c1ccc2[nH]c(-c3ccc(-c4cccc(CNCCc5ccncc5)c4)s3)nc2c1 : inhibition is 5.33

For reference, reported inhibition for c1ccc(COc2ccc(COc3ccc(Cn4ccnc4)cc3)cc2)cc1 stands at 1.02

For reference, reported inhibition for CN(CCO)Cc1ccc(-c2ccc(NS(=O)(=O)c3cccc4cccnc34)cc2)cc1 stands at 80.8

// sample CS(=O)(=O)Cc1ccc(Nc2nccc(-c3c(-c4cccc(NC(=O)c5c(F)cccc5F)c4)nn4ncccc34)n2)cc1 , its inhibition was 2.78

response.value for Cc1cccc(Cn2c(C(N)=O)nn(-c3ccc([N+](=O)[O-])cc3C#N)c2=S)c1 (field: inhibition) = 11.7

Measured inhibition, CN(C)CCC1CCN(CCS(=O)(=O)c2cccc(Nc3ncc(-c4cccc(F)c4)cn3)c2)CC1 : 9.03

The compound COc1ccc2nccc([C@@H](O)CN3CCC(NS(=O)(=O)c4cc(Br)c(Br)s4)CC3)c2c1 showed inhibition equal to 1.8

GET /value?item= O=C(CCN(Cc1ccco1)c1nc(-c2ccc(F)cc2)nc2ccccc12)NC1CC1 &field=inhibition returns 9.67
